assay: physchem
test conditions: buffer
Using solubility thermodynamic as the sorting value, the categories are low bin = under 6 µg/mL, mid bin = from 6 µg/mL up to 100 µg/mL, high bin = 100 µg/mL and over

compound="Cc1sc(-c2ccccc2)nc1CCOc1ccc(CC(Nc2ccccc2C(=O)c2ccccc2)C(=O)O)cc1 (stereo not drawn)" class_label="low bin"
compound=O=C(NC1=CC=CC1)NC12CC3CC(CC(C3)C1)C2 class_label="low bin"
compound=C[C@H]1[C@H](COP(=O)([O-])[O-])OC(=O)N1c1ccc(-c2ccc([C@@H]3CN(C)C(=O)O3)nc2)cc1O.[Na+].[Na+] class_label="high bin"
compound="Nc1nc2cc(-c3ccc(CCCc4ccccc4)cc3)ccc2c(=O)n1CC1CCC(c2ccccc2)O1 (stereo not drawn)" class_label="low bin"
compound="CCC(c1c(Cl)c(Cl)cc2nc(O)c(O)nc12)n1cncn1 (stereo not drawn)" class_label="mid bin"
compound=CN(C)CCn1cc(C(=O)NC23CC4CC(CC(C4)C2)C3)c(=O)c2ccc(F)cc21 class_label="low bin"
compound=CCc1cc(C(=O)N2Cc3ccc(CN4CCN(C)CC4)cc3C2)c(O)cc1O class_label="high bin"
compound="CCCCCc1ccc(-c2cc(CCC(=O)O)c3c(=O)n(CC4CCCO4)c(N)nc3c2)cc1 (stereo not drawn)" class_label="low bin"
compound=CC(=O)N1CCN(C(=O)/C=C/c2ccc(Sc3ccc4c(c3)OCCO4)c(Cl)c2)CC1 class_label="low bin"
compound="O=C(O)c1c(O)c(C2(c3ccc(Cl)cc3)CC2)nc2c3c(ccc12)CCC(C(F)(F)F)C3 (stereo not drawn)" class_label="high bin"
compound=CC(C)N1C[C@H]2C[C@@H]1CN2c1ccc(Nc2nc(-c3ccc4cn[nH]c4c3)cn3ccnc23)cc1 class_label="low bin"
compound="CCCCCc1ccc(-c2cc(-c3ccc(C(=O)O)cc3)c3c(=O)n(CC4CCC(c5ccccc5)O4)c(N)nc3c2)cc1 (stereo not drawn)" class_label="low bin"
compound=CC(=O)NC[C@@H]1OC(=O)N2c3ccc(-c4ccc(C#N)nc4)cc3OC[C@@H]12 class_label="mid bin"
compound=C[C@@H]1CN(Cc2ccccc2)c2cnccc2[C@H](C)N1C(=O)NCc1ccccc1 class_label="mid bin"
compound="Cc1nsc(N2C[C@H]3CC[C@@H](C2)C3NC2=NC3C=CC=C(OC(F)(F)F)C3=N2)n1 (stereo partly drawn)" class_label="high bin"
compound=CC(C)c1cccc(C(C)C)c1NC(=O)CN1CCN(CCSc2nc3ccccc3o2)CC1 class_label="high bin"
compound="CN1C(=O)CCC(N2C(=O)c3ccccc3C2=O)C1=O (stereo not drawn)" class_label="high bin"
compound="Fc1ccc(C2CCC(c3ccn4c(CC5CC5)nnc4c3C(F)(F)F)CC2)c(F)c1 (stereo not drawn)" class_label="mid bin"
compound="Clc1ccc(C(Cl)Cn2ncc3c(NCc4ccncc4)ncnc32)cc1 (stereo not drawn)" class_label="mid bin"
